# system: c-Src (Homo sapiens (Human))
# Sequence (P12931 whole entry, looked up): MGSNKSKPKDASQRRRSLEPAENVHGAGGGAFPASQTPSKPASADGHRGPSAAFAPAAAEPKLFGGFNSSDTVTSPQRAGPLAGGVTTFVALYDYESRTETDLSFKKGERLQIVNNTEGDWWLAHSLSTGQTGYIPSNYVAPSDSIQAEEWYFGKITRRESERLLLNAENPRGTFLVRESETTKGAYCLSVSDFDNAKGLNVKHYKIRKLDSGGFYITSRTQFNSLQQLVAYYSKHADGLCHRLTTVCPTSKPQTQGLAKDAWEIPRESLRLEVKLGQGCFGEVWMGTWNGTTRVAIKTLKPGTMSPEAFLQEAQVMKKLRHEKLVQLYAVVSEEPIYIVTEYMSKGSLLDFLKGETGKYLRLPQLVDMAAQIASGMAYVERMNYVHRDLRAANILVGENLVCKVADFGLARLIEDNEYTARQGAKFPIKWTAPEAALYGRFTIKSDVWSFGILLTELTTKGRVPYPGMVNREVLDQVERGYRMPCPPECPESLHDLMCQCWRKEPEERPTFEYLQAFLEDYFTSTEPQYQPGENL
The entries below are paired with their reported IC50.
Write the numeric value and follow it with the unit.

Solved entries (count: 2):
COCCOCCOCCOc1cc(Nc2nccc(Oc3ccc(NC(=O)Nc4cc(C(C)(C)C)cc(NS(C)(=O)=O)c4OC)c(Cl)c3Cl)n2)cc(OC)c1    18 nM
COCCOCCOCCOc1cc(Nc2nccc(Oc3ccc(NC(=O)Nc4cc(C(C)(C)C)cc(C(=O)NCCN(C)C)c4OC)c4ccccc34)n2)cc(OC)c1    15 nM

The reported c-Src (Homo sapiens (Human)) IC50 of C#Cc1cc(Nc2nccc(Oc3ccc(NC(=O)Nc4cc(C(C)(C)C)cc(NS(C)(=O)=O)c4OC)c4ccccc34)n2)cc(C(=O)N[C@@H](C)CN2CCOCC2)c1 is 48 nM

====

The entries below are paired with their reported concentration at 24 h.
# method notes: Plasma pharmacokinetics and total colon tissue distribution in mice, single oral administration
# Type: in vivo, mouse (male C57BL/6)
# study conditions: male, C57BL/6, mouse, total colon, 5 mg/kg, read-out: Median total colon concentration
Quick reminder: number only, in ng/g, skip the unit.

COCCOCCOCCNC(=O)c1cc(Nc2cc(Oc3ccc(NC(=O)Nc4cc(C(C)(C)C)cc(NS(C)(=O)=O)c4OC)c4ccccc34)ccn2)cc(OC)c1    19.1

With those in mind, consider the next compound.
For COc1c(NC(=O)Nc2ccc(Oc3ccnc(Nc4ccccc4)c3)c3ccccc23)cc(C(C)(C)C)cc1C(=O)NC1COC1 the compound record lists concentration at 24 h as 7.5

====

# System: TNBS-induced colitis in BDF1 mice
# method notes: TNBS-induced colitis in mice (in vivo iv)
# Design: species or system mouse
# study conditions: 5 mg/kg orally, TNBS-induced colitis, mice, 2 days
property measured: ulcer grade and epithelial repair compared to the vehicle control

COc1cc(Nc2cc(Oc3ccc(NC(=O)Nc4cc(C(C)(C)C)cc(NS(C)(=O)=O)c4OC)c4ccccc34)ccn2)cc(C(=O)NCCN2CCOCC2)c1    marked improvements
COCCOCCOCCOc1cc(Nc2nccc(Oc3ccc(NC(=O)Nc4cc(C(C)(C)C)cc(NS(C)(=O)=O)c4OC)c4ccccc34)n2)cc(OC)c1    marked improvements
COc1cc(Nc2cc(Oc3ccc(NC(=O)Nc4cc(C(C)(C)C)cc(NS(C)(=O)=O)c4OC)c4ccccc34)ccn2)cc(C(=O)NCCN2CCN(C)CC2)c1    marked improvements
COc1c(NC(=O)Nc2ccc(Oc3ccnc(Nc4ccccc4)c3)c3ccccc23)cc(C(C)(C)C)cc1C(=O)NC1COC1    marked improvements

====

Assay read-out log10 IC50; system under study: Syk (Homo sapiens (Human)).
Kindly note that the scale is log10 and the underlying IC50 is in µM.

Solved entries (count: 6):
COCCOCCOCCOc1cc(Nc2nccc(Oc3ccc(NC(=O)Nc4cc(C(C)(C)C)cc(C(=O)NC5CC5)c4OC)c4ccccc34)n2)cc(OC)c1    -1.55
C#Cc1cc(Nc2nccc(Oc3ccc(NC(=O)Nc4cc(C(C)(C)C)cc(C(=O)NC)c4OC)c4ccccc34)n2)cc(C(=O)NCCN2CCOCC2)c1    -1.57
C#Cc1cc(Nc2cc(Oc3ccc(NC(=O)Nc4cc(NS(C)(=O)=O)cc(C(C)(C)C)c4)c4ccccc34)ccn2)cc(C(=O)NCCN2CCOCC2)c1    0.11
COCCOCCOCCOc1cc(Nc2nccc(Oc3ccc(NC(=O)Nc4cc(C(C)(C)C)cc(NS(C)(=O)=O)c4OC)c4ccccc34)n2)cc(OC)c1Cl    -0.34
COc1c(NC(=O)Nc2ccc(Oc3ccnc(Nc4ccccc4)c3)c3ccccc23)cc(C(C)(C)C)cc1C(=O)NC1COC1    -0.67
COCCOCCOCCNC(=O)c1cc(Nc2cc(Oc3ccc(NC(=O)Nc4cc(C(C)(C)C)cc(NS(C)(=O)=O)c4OC)c4ccccc34)ccn2)cc(OC)c1    -0.16

The reported Syk (Homo sapiens (Human)) log10 IC50 of COCCOCCOCCOc1cc(Nc2nccc(Oc3ccc(NC(=O)Nc4cc(C(C)(C)C)cc(-c5nnco5)c4OC)c4ccccc34)n2)cc(OC)c1 is -0.89

The reported Syk (Homo sapiens (Human)) log10 IC50 of COc1cccc(Nc2cc(Oc3ccc(NC(=O)Nc4cc(C(C)(C)C)cc(C(=O)NC5COC5)c4OC)c4ccccc34)ccn2)c1 is -0.92

The reported Syk (Homo sapiens (Human)) log10 IC50 of COCCOCCOCCOc1cc(Nc2nccc(Oc3ccc(NC(=O)Nc4cc(C(C)(C)C)cc(C(=O)NCCN(C)C)c4OC)c4ccccc34)n2)cc(OC)c1 is -1.70

The reported Syk (Homo sapiens (Human)) log10 IC50 of CNC(=O)c1cc(C(C)(C)C)cc(NC(=O)Nc2ccc(Oc3ccnc(Nc4cc(CO)cc(OC)c4)c3)c3ccccc23)c1OC is -0.89

The reported Syk (Homo sapiens (Human)) log10 IC50 of COc1cc(Nc2cc(Oc3ccc(NC(=O)Nc4cc(C(C)(C)C)cc(NS(C)(=O)=O)c4OC)c4ccccc34)ccn2)cc(C(=O)NCC(=O)N2CCOCC2)c1 is -0.18

The reported Syk (Homo sapiens (Human)) log10 IC50 of COc1cc(Nc2cc(Oc3ccc(NC(=O)Nc4cc(C(C)(C)C)cc(NS(C)(=O)=O)c4OC)c4ccccc34)ccn2)cc(C(=O)NCCN2CCOCC2)c1 is -0.35
